# Test system: herpes simplex virus
# assay-remarks: inhibition of herpes simplex virus multiplication in tissue culture (plaque formation technic of Rapp)
# Format: cell-based
# condition-label: read-out: Concentration required to exert 100% inhibition of herpes-induced plaque formation
Outcome: condition met for IC100 of at least 7 µg/mL; condition not met for anything lower.

**Query** Please tell me: is the molecule CN(C)CCCOC[C@H]1OC(O)[C@H](O)[C@@H](O)[C@H]1O (some centres unmarked) at or over 7 µg/mL in terms of IC100?
**Result** condition met

**Query** Same again, this time with CCN(CC)CCO[C@H]1[C@H](O)[C@@H](CO)OC(O)[C@@H]1O (some centres unmarked)
**Result** condition met

**Query** Now give it for NCCCO[C@H]1[C@H](O)[C@@H](CO)OC(O)[C@@H]1O (stereo partly drawn) [3-O-3'-n-propylamino-D-glucose, 3-O-3'-(n-propylamino)-D-glucopyranose] too.
**Result** condition met

**Query** Moving on to CCN(CC)CCOC1C(C2COC(C)(C)O2)OC2OC(C)(C)OC21 (centres unmarked)
**Result** condition met

**Query** Now the molecule CC(CN(C)C)O[C@H]1O[C@H](CO)[C@@H](O)[C@H](O)[C@H]1O (stereo partly drawn) [α-N,N-dimethylaminoisopropyl glucoside, α-N,N-dimethylaminoisopropyl-D-glucoside]
**Result** condition met

**Query** Then CN1CCC(O[C@H]2[C@H](O)[C@@H](CO)OC(O)[C@@H]2O)CC1 (stereo partly drawn) [3-O-4'-(N-methylpiperidyl)-D-glucose] ?
**Result** condition not met

**Query** Follow-up item: CN(C)CCCO[C@H]1[C@H](O)[C@@H](CO)OC(O)[C@@H]1O (some centres unmarked)
**Result** condition not met
